- TESTED_ON: LC3/Epithelial discoidin domain-containing receptor 1 (Homo sapiens, UniProt Q08345+Q9BXW4+Q9GZQ8+Q9H492)
- TEST_METHOD_NOTES: Autophagosome tethering activity at DDR1 in human NCI-H23 cells assessed as protein degradation at 0.3 uM measured after 24 hrs by immunoblotting analysis relative to control
- Assay type: cell-based
# Activity annotations
Supply the numeric figure in %, leaving out any unit text.

Reference set, count: 2
STRUCTURE_NOTATION	OBSERVED_VALUE
CCc1ccc(C(=O)Nc2cc(CN3CCN(C(=O)COCCOCCOCCNC(=O)COc4c(Br)cc(/C=C5\C(=O)Nc6ccc(I)cc65)cc4Br)CC3)cc(C(F)(F)F)c2)cc1C#Cc1cnc2ccnn2c1	0
CCc1ccc(C(=O)Nc2cc(CN3CCN(C(=O)COCCNC(=O)COc4c(Br)cc(/C=C5\C(=O)Nc6ccc(I)cc65)cc4Br)CC3)cc(C(F)(F)F)c2)cc1C#Cc1cnc2ccnn2c1	0

Req: Please report the measured Activity for `CCc1ccc(C(=O)Nc2cc(CN3CCN(C(=O)CNC(=O)COc4c(Br)cc(/C=C5\C(=O)Nc6ccc(I)cc65)cc4Br)CC3)cc(C(F)(F)F)c2)cc1C#Cc1cnc2ccnn2c1`
Resp: 16

Req: Please report the measured Activity for `CCc1ccc(C(=O)Nc2cc(CN3CCN(C(=O)COc4c(Br)cc(/C=C5\C(=O)Nc6ccc(I)cc65)cc4Br)CC3)cc(C(F)(F)F)c2)cc1C#Cc1cnc2ccnn2c1`
Resp: 4

Req: Please report the measured Activity for `CCc1ccc(C(=O)Nc2cc(CN3CCN(C(=O)CCCCCNC(=O)COc4c(Br)cc(/C=C5\C(=O)Nc6ccc(I)cc65)cc4Br)CC3)cc(C(F)(F)F)c2)cc1C#Cc1cnc2ccnn2c1`
Resp: 12
